Target: orexin-1 (Homo sapiens (Human), UniProt O43613)
Sequence (O43613 whole entry): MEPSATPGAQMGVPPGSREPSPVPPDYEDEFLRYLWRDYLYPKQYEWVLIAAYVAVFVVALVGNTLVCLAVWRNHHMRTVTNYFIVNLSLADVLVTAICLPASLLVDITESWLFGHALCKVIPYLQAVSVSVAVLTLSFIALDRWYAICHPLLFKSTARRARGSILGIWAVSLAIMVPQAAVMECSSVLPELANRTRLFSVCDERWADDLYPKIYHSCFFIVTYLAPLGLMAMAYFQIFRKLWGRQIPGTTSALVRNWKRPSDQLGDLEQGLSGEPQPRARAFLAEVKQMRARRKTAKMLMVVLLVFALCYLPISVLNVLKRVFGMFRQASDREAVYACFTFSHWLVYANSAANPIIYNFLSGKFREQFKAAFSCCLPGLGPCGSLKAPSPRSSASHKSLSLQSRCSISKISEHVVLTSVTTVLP
Experiment: Intracellular calcium measurement (FLIPR), CHO cells expressing human orexin-1 receptor, 3 nM orexin-A
Type: cell-based
Details: CHO cells expressing human orexin-1 receptor, FLIPR, 3 nM orexin-A; geometric mean if determined several times; read-out: IC50 OX1
pIC50: −log10 of the molar value.
Mark 0 (no) for pIC50 values under 7, and 1 (yes) for everything at or above.

> print(dat)
                                      smiles                           target.of.assay  label.value
 1  Cc1ccc(-n2nccn2)c(C(=O)N2CCC[C@H]2c2noc(-c3cc(C(F)(F)F)ccn3)n2)c1  orexin-1 (Homo sapiens (Human), UniProt O43613)       0 (no)
 2  COc1cc(C(=O)N2CCC[C@H]2c2nc(-c3ccccc3OC(F)F)no2)c(-n2nccn2)cc1C  orexin-1 (Homo sapiens (Human), UniProt O43613)      1 (yes)
 3  Cc1ccc(-n2nccn2)c(C(=O)N2CCC[C@H]2c2cc(-c3cccc(Cl)c3C)n[nH]2)c1  orexin-1 (Homo sapiens (Human), UniProt O43613)       0 (no)
 4  COc1cccc(-c2nc([C@@H]3CCCN3C(=O)c3ccc(C)cc3-n3nccn3)no2)c1C  orexin-1 (Homo sapiens (Human), UniProt O43613)       0 (no)
 5  Cc1ccc(C(=O)N2CCC[C@@]2(C)c2nnc(-c3cccc(Cl)c3C)[nH]2)c(-n2nccn2)c1  orexin-1 (Homo sapiens (Human), UniProt O43613)      1 (yes)
 6  COc1c(F)cccc1-c1nc([C@@H]2CCCN2C(=O)c2cc(Cl)ccc2-n2nccn2)no1  orexin-1 (Homo sapiens (Human), UniProt O43613)      1 (yes)
 7  Cc1cccc(-n2nccn2)c1C(=O)N1CCC[C@H]1c1nc(-c2cccc(Cl)c2C)no1  orexin-1 (Homo sapiens (Human), UniProt O43613)       0 (no)
 8  CCOc1c(F)cccc1-c1nnc([C@@H]2CCCN2C(=O)c2cc(C)ccc2-n2nccn2)o1  orexin-1 (Homo sapiens (Human), UniProt O43613)       0 (no)
 9  Cc1ccc(-n2nccn2)c(C(=O)N2CCC[C@H]2c2ncc(-c3cccc(Cl)c3C)[nH]2)c1  orexin-1 (Homo sapiens (Human), UniProt O43613)       0 (no)
10  COc1cc(C(=O)N2CCC[C@H]2c2noc(-c3cccc(C)c3C)n2)c(-n2nccn2)cc1Cl  orexin-1 (Homo sapiens (Human), UniProt O43613)      1 (yes)
11  CCOc1c(F)cccc1-c1noc([C@@H]2CCCN2C(=O)c2cc(C)ccc2-n2nccn2)n1  orexin-1 (Homo sapiens (Human), UniProt O43613)      1 (yes)
12  COc1ccc(-n2nccn2)c(C(=O)N2CCC[C@H]2c2nc(-c3ccccc3OC(F)(F)F)no2)c1F  orexin-1 (Homo sapiens (Human), UniProt O43613)      1 (yes)

###

Biological target: orexin-1 (Homo sapiens (Human))
Assay: Intracellular calcium measurement (FLIPR), CHO cells expressing human orexin-1 receptor, 3 nM orexin-A
Type: cell-based
Settings: CHO cells expressing human orexin-1 receptor, FLIPR, 3 nM orexin-A; geometric mean if determined several times; read-out: IC50 OX1
Quick list: IC50 per entry.
Result type: IC50 (nM)

> print(dat)
                                   molecule  observed.measurement
1  CCOc1c(F)cccc1-c1nc([C@@H]2CCCN2C(=O)c2ccc(C)cc2-n2nccn2)no1 [compound 328]                    16
2  COc1cc(C(=O)N2CCC[C@H]2c2noc(-c3cc(C)ccc3C)n2)c(-n2nccn2)cc1Cl [compound 408]                    31
3  COc1c(Cl)cccc1-c1nc([C@@H]2CCCN2C(=O)c2cc(Cl)ccc2-n2nccn2)no1 [compound 357]                    81
4  Cc1ccc(C(=O)N2CCC[C@H]2c2nc(-c3ccccc3C(F)(F)F)no2)c(-n2nccn2)c1 [compound 180]                   183
